Test: in vivo
Conditions: male, Labrador, dog, iv, 25 mg, t1/2
Procedure: First, four male dogs (H1-H4) (Labrador, approx. 1 year of age and weight 30 kg) were given 2-hydroxy-flutamide (25 mg) by single bolus doses intravenously during 30 seconds. The intravenous solution base was sterile saline […], sterile polyethylene glycol 400 46% and ethanol (95%) 6%. […] Quantification of 2-hydroxy-flutamide in plasma and tissue samples was done by HPLC-MS. […] The limit of quantification was 0.50 ng/ml in dog plasma. […]
readout: half-life (h)
Give just the number in h; leave the unit off.

## Task Identify measured half-life corresponding to CC(C)(O)C(=O)Nc1ccc([N+](=O)[O-])c(C(F)(F)F)c1 [2-hydroxy-flutamide]
## Result 1.9
